Source: patent US20250084084A1

Target: α-melanocyte-stimulating hormone receptor (hMC4R) (Homo sapiens (Human), UniProt P32245)
Sequence (P32245 whole entry): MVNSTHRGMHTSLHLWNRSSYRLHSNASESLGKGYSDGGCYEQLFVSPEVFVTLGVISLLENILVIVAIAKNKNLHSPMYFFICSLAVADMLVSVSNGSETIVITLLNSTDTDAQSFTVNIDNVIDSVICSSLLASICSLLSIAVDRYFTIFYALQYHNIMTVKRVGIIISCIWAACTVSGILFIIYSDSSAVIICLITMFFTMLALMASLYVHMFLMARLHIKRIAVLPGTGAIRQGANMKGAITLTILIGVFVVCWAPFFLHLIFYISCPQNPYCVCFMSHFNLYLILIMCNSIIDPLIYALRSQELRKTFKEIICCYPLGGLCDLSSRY
Experiment: In vitro binding affinity assay using hMC4R (radioligand competition binding, [125I]-(Nle4, D-Phe7)-α-MSH)
Settings: geometric mean, read-out: Ki (nM) geometric
Description: The binding affinity of test compounds at the α-melanocyte-stimulating hormone receptor (hMC4R) was assessed using a radioligand competition binding assay. […] Compounds were solubilized in 100% dimethyl sulfoxide (DMSO) to a concentration of 30 mM. […] The exact concentration of radioligand used for each experiment was determined by liquid scintillation counting and adjusted if necessary. […] The raw data (expressed as counts per minute) were analyzed using ActivityBase (IDBS Data Management Software). […]
Assign Ki to each entry below.

Answered examples (3):
>>> print(df.to_string())
                                   molecule  recorded_result
0  COc1cc([C@@H](C)C(=O)N2CC[C@@]3(CCc4cc(-c5ccc(C(F)(F)F)cn5)c(C)nc4N3)C2)c(F)cn1 [Example 155]            27 nM
1  COc1cc([C@@H](C)C(=O)N2CC[C@@]3(CCc4cc(-c5ccc(C(F)F)cn5)c(C)nc4N3)C2)c(F)cn1 [Example 179]            21 nM
2  COc1cc([C@@H](C)C(=O)N2CC[C@@]3(CCc4cc(-c5cc(C)nc(C(C)C)n5)c(C)nc4N3)C2)c(F)cn1 [Example 183]             4 nM

Let us examine a further case.
Report Ki from α-melanocyte-stimulating hormone receptor (hMC4R) (Homo sapiens (Human), UniProt P32245) testing of COc1cc([C@@H](C)C(=O)N2CC[C@@]3(CCc4cc(-c5ccncc5)c(C)nc4N3)C2)c(F)cn1 [Example 169]
7.6 nM
